Let's look at some compounds and their measured EC50.
# Test system: p53RE-bla HCT-116 cells
# Experimental parameters: read-out: EC50, viability, primary screening

{"Smiles repr": "O=[Se](O)O", "EC50 / µM": 42.9}
{"Smiles repr": "Oc1ccc(C(c2ccc(O)cc2)(C(F)(F)F)C(F)(F)F)cc1", "EC50 / µM": 47.6}

----------
Reported EC50, viability, primary screening for target or system p53RE-bla HCT-116 cells, by entry.
Measured attribute: EC50, viability, primary screening

{"Compound": "Cl.O.c1cnc2c(c1)ccc1cccnc12", "Test result": "inactive"}
{"Compound": "Oc1c(Cl)c(Cl)cc(Cl)c1Cl", "Test result": "inactive"}
{"Compound": "O=C(c1ccc(O)cc1)c1ccc(O)cc1O [2,4,4'-Trihydroxybenzophenone]", "Test result": "inactive"}
{"Compound": "Nc1ccn([C@@H]2O[C@H](CO)[C@@H](O)[C@@H]2O)c(=O)n1", "Test result": "inactive"}
{"Compound": "Oc1ccc(Oc2ccccc2)cc1", "Test result": "inactive"}
{"Compound": "Nc1cc(Cl)ccc1O", "Test result": "inactive"}
{"Compound": "CCCCCCNC(=O)n1cc(F)c(=O)[nH]c1=O", "Test result": "inactive"}
{"Compound": "CO[C@@]12[C@H](COC(N)=O)C3=C(C(=O)C(C)=C(N)C3=O)N1C[C@@H]1N[C@@H]12", "Test result": "inactive"}
{"Compound": "CCOC(=O)NC(=S)Nc1ccccc1NC(=S)NC(=O)OCC [Thiophanate]", "Test result": "inactive"}
{"Compound": "Oc1c(I)cc(I)cc1I", "Test result": "inactive"}

----------
# Tested on: p53RE-bla HCT-116 cells
# Protocol details: cells
# Experimental parameters: Homo sapiens, HCT-116, read-out: Viability EC50, cherry pick confirmation
Structures can show the parent of a compound that is named as a salt.
Measured attribute: EC50 (µM)

{"Compound": "CCOc1ccc2c(c1)C(C)=CC(C)(C)N2 [Ethoxyquin]", "Measured attribute": "EC50", "Unit tag": "µM", "Test result": 51.1}
{"Compound": "CC1CCC(C(C)C)C(OC(=O)c2ccccc2N)C1 (stereo not shown) [Menthyl anthranilate]", "Measured attribute": "EC50", "Unit tag": "µM", "Test result": 33.8}
{"Compound": "COC(=O)C1=C(C)NC(COC(N)=O)=C(C(=O)OC(C)C)C1c1cccc(Cl)c1Cl (stereo not shown) [Lemildipine]", "Measured attribute": "EC50", "Unit tag": "µM", "Test result": 19.9}
{"Compound": "CCOC(=O)C1(c2ccccc2)CCN(CCC(C#N)(c2ccccc2)c2ccccc2)CC1 [Diphenoxylate hydrochloride]", "Measured attribute": "EC50", "Unit tag": "µM", "Test result": 3.16}

----------
# Test system: p53 signaling (p53RE-bla HCT-116 cells)
# Protocol details: cells
# Assay type: cell-based
# Experimental parameters: Homo sapiens, HCT-116, read-out: p53 activation EC50, cherry pick confirmation
pEC50: −log10 of the molar value.
Items are presented alongside their recorded pEC50.
Measured attribute: pEC50

{"Compound": "Nc1nc(Cl)nc2c1ncn2[C@@H]1O[C@H](CO)[C@@H](O)[C@@H]1F", "Measured attribute": "pEC50", "Test result": 6.48}
{"Compound": "CC(CN1CC(=O)NC(=O)C1)N1CC(=O)NC(=O)C1 (stereo not drawn)", "Measured attribute": "pEC50", "Test result": 4.68}
{"Compound": "O=C(N/N=C/c1ccc([N+](=O)[O-])o1)c1ccc(O)cc1 [Nifuroxazide]", "Measured attribute": "pEC50", "Test result": 4.99}
{"Compound": "CC(=O)Oc1ccc(C2(c3ccc(OC(C)=O)cc3)Oc3ccccc3NC2=O)cc1 [Bisoxatin acetate]", "Measured attribute": "pEC50", "Test result": 6.18}
{"Compound": "CC1CCC(C(C)C)C(OC(=O)c2ccccc2N)C1 (stereo not drawn) [Menthyl anthranilate]", "Measured attribute": "pEC50", "Test result": 6.08}
{"Compound": "CCC(C)(NC(=O)c1cc(Cl)c(C)c(Cl)c1)C(=O)CCl (stereo not drawn) [Zoxamide]", "Measured attribute": "pEC50", "Test result": 4.65}
{"Compound": "NC(=O)c1ncn([C@@H]2O[C@H](CO)[C@@H](O)[C@H]2O)n1", "Measured attribute": "pEC50", "Test result": 4.97}
{"Compound": "S=c1[nH]cnc2nc[nH]c12", "Measured attribute": "pEC50", "Test result": 5.01}
{"Compound": "CC(C)C[C@H](NC(=O)[C@H](CCc1ccccc1)NC(=O)CN1CCOCC1)C(=O)N[C@@H](Cc1ccccc1)C(=O)N[C@@H](CC(C)C)C(=O)[C@@]1(C)CO1", "Measured attribute": "pEC50", "Test result": 7.22}
{"Compound": "CC(C)C[C@H](NC(=O)[C@H](Cc1ccccc1)NC(=O)c1cnccn1)B(O)O", "Measured attribute": "pEC50", "Test result": 7.00}
{"Compound": "COc1c(C)c2c(c(O)c1C/C=C(\\C)CCC(=O)O)C(=O)OC2", "Measured attribute": "pEC50", "Test result": 6.77}
{"Compound": "O=C1OC(O)C(Cl)=C1Cl (stereo not drawn)", "Measured attribute": "pEC50", "Test result": 4.80}
{"Compound": "Oc1c(Cl)cc(Cl)c(Cl)c1Cc1c(O)c(Cl)cc(Cl)c1Cl", "Measured attribute": "pEC50", "Test result": 4.75}
{"Compound": "CC(=O)OC[C@H]1O[C@@H](n2ncc(=O)[nH]c2=O)[C@H](OC(C)=O)[C@@H]1OC(C)=O", "Measured attribute": "pEC50", "Test result": 6.22}
{"Compound": "O=C(O)c1c(O)c(-c2ccccc2)nc2ccccc12", "Measured attribute": "pEC50", "Test result": 4.64}
{"Compound": "O=c1cc(-c2ccc(O)cc2)oc2cc(O)cc(O)c12", "Measured attribute": "pEC50", "Test result": 4.33}
{"Compound": "CC(C)(C)C(=O)OCOP(=O)(COCCn1cnc2c(N)ncnc21)OCOC(=O)C(C)(C)C", "Measured attribute": "pEC50", "Test result": 5.83}
{"Compound": "Oc1ccc(OCc2ccccc2)cc1", "Measured attribute": "pEC50", "Test result": 4.85}
